Field: mass density. Provide a value for each of the compounds that follow.
conditions: 353.15 K; 101.33 kPa; Liquid; Vibrating tube method
Give bare numbers, in kg/m3.

>>> recorded_value("CCn1cc[n+](C)c1.O=S(=O)([N-]S(=O)(=O)C(F)(F)C(F)(F)F)C(F)(F)C(F)(F)F")
1533.92
>>> recorded_value("CCn1cc[n+](C)c1.F[B-](F)(F)F [1-ethyl-3-methylimidazolium tetrafluoroborate]")
1238.83
>>> recorded_value("CCn1cc[n+](C)c1.O=S(=O)([O-])C(F)(F)C(F)(F)C(F)(F)C(F)(F)F")
1489.64

Here is the next item to consider.
// query mass density value for entry CCn1cc[n+](C)c1.O=S(=O)([N-]S(=O)(=O)C(F)(F)F)C(F)(F)F 1464.36
